test system: RARa:RXR (NR concentration 270 nM, RXRa partner concentration 90 nM); experiment: PBM binding z-score (relative to random genomic background probes); higher = stronger binding; sequences stand for … in GC…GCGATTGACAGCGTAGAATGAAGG
Rule: PBM binding z-score of 1 or more gives met; anything lower gives not met.

Use these answered entries as a reference point.
> print(dat)
                        sequence.code                             system.tested  assigned.category
1  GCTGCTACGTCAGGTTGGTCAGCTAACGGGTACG  RARa:RXR (NR concentration 270 nM, RXRa partner concentration 90 nM)            not met
2  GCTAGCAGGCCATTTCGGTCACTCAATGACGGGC  RARa:RXR (NR concentration 270 nM, RXRa partner concentration 90 nM)            not met
3  ATCTCTAGGTAACAAGTTCAGTGAAAGAGAGGAC  RARa:RXR (NR concentration 270 nM, RXRa partner concentration 90 nM)            not met
4  CTCGAAAGGTCGATTGAGGTGAGTATACGGATAA  RARa:RXR (NR concentration 270 nM, RXRa partner concentration 90 nM)                met
5  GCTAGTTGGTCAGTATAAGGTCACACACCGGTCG  RARa:RXR (NR concentration 270 nM, RXRa partner concentration 90 nM)                met
6  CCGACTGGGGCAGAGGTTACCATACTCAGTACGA  RARa:RXR (NR concentration 270 nM, RXRa partner concentration 90 nM)                met

Next sequence, please.
Prompt line: Determine whether this sequence has PBM binding z-score no lower than 1: "TGAATGAGGTTATAAGATCAAGGAACGTTGCAAA"
Response line: met

====

tested on: VDR homodimer (NR concentration 270 nM); test: PBM binding z-score (relative to random genomic background probes); higher = stronger binding; sequences stand for … in GC…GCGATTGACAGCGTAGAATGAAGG
Is PBM binding z-score at least 0.2? Then met. If not, not met.

Use the examples below as a reference point.
> print(dat)
                        sequence.code  assigned.category
1  CCTAGCAGGCCAGGGTCAATCAAGCATTTCGCTT                met
2  ATCTCTAGGTAAAAGTCCAGTGAATCCCGAGGAT            not met
3  CAAACTAGGTCAAGTGGTCAAAGTCCGCTTCCCG                met
4  GGAACGAGGGCATTCGTGTTGATAGCATGGCGAT                met

Prompt line: Quick check: does "TATTGTAGATCAATAGAGGTTAAGAAAGTGCGCT" have PBM binding z-score greater than or equal to 0.2?
Response line: met

Prompt line: Lookup "CCTACTGGACCAAAAAGGTCATTGATGCCGATAA"
Response line: met

Prompt line: Please answer likewise for "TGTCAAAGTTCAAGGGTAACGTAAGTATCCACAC"
Response line: met

Prompt line: And for "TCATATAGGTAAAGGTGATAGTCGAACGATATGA" ?
Response line: not met

Prompt line: Follow-up item: "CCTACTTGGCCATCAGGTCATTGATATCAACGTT"
Response line: met

Prompt line: How about this sequence: "GTGCCAAGGTGAATAGGTCGTTGATGAGTAGGCG"
Response line: not met

Prompt line: Now consider "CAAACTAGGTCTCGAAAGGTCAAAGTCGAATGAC" and answer again.
Response line: met

Prompt line: # iterate: "CCTACTGGGCCATCAGGGCATTGATATCAACGTT"
Response line: not met

Data provenance is the supplement of paper PMC6555819.
